Each recorded value in this set is attributed to paper PMC12195982.

Tested on: INH- and RIF-resistant Mtb (strain T113/09, KatG and rpoB mutation)
Type: cell-based, Mycobacterium tuberculosis
Hi there, I'd appreciate the recorded MIC INH/RIFR-Mtb for every entry that follows.

*Q* Request body: readout MIC INH/RIFR-Mtb, system INH- and RIF-resistant Mtb (strain T113/09, KatG and rpoB mutation), query CC1=C(C(c2ccc(C)cc2)n2cc(C[Se]c3ccccc3)nn2)C(=O)c2ccccc2C1=O (stereo not drawn) [Compound 9h] . Return the value.
*A* ≤3 µg/mL

*Q* Test system INH- and RIF-resistant Mtb (strain T113/09, KatG and rpoB mutation); read-out MIC INH/RIFR-Mtb; what value for CC1=C(Cn2cc(C[Se]c3cccc(C(F)(F)F)c3)nn2)C(=O)c2ccccc2C1=O [Compound 9c] ?
*A* >99 µg/mL

*Q* What MIC INH/RIFR-Mtb appears in the records for this compound with INH- and RIF-resistant Mtb (strain T113/09, KatG and rpoB mutation)? NNC(=O)c1ccncc1 [INH, isoniazid, reference compound]
*A* 8 µg/mL

*Q* What value of MIC INH/RIFR-Mtb on INH- and RIF-resistant Mtb (strain T113/09, KatG and rpoB mutation) does CC1=C(C(c2ccccc2)n2cc(C[Se]c3ccccc3)nn2)C(=O)c2ccccc2C1=O (stereo not drawn) [Compound 9g] have?
*A* ≤3 µg/mL

*Q* INH- and RIF-resistant Mtb (strain T113/09, KatG and rpoB mutation) / MIC INH/RIFR-Mtb / CC1=C(Cn2cc(C[Se]c3ccc(Cl)cc3)nn2)C(=O)c2ccccc2C1=O [Compound 9b] : value?
*A* ≤3 µg/mL

*Q* Request: MIC INH/RIFR-Mtb, test system INH- and RIF-resistant Mtb (strain T113/09, KatG and rpoB mutation), entry CC1=C(Cn2cc(C[Se]c3ccccc3)nn2)C(=O)c2ccccc2C1=O [Compound 9a]
*A* 3 µg/mL
